- System: barnyardgrjass
- test name: Foliar spread test for upland field
- Type: in vivo, Eschinochloa crusgalli
- Parameters: key: 0 = normal development, 5 = all killed (6 ranks vs. untreated)
- condition parameters: foliar spray, 500 ppm, 3 weeks, glass house 25° C.
observable: Effects Barnyardgrass
Give bare numbers.

Some solved cases for reference:
CCCC(=Cc1cccc(C(F)(F)F)c1)c1nc2cc(C#N)c(F)cc2o1 [I-c-139]
3
CC(=Cc1cccc(C(F)(F)F)c1)c1nc2cc(F)ccc2o1 [I-c-40]
1
CCC(=Cc1cccc(C(F)(F)F)c1)c1nc2cc(C#N)c(F)cc2o1 [I-c-137]
3
CCC(=Cc1cccc(C(F)(F)F)c1)c1nc2cc(F)c(F)cc2o1 [I-c-111]
3
CC(=Cc1cccc(C(F)(F)F)c1)c1nc2cc(C#N)c(Cl)cc2o1 [I-c-141]
1

// for each molecule below, give its Effects Barnyardgrass
1. CCC(=Cc1cccc(C(F)(F)F)c1)c1nc2ccc([N+](=O)[O-])cc2o1 [I-c-15]
2. FC(F)(F)c1cccc(C=Cc2nc3ccccc3o2)c1 [I-c-1]
3. FC(F)(F)c1cccc(Oc2cccc(-c3nc4cc(Cl)ccc4o3)n2)c1 [I-a-3]
4. FC(F)(F)c1cccc(Oc2cccc(-c3nc4ccccc4o3)n2)c1 [I-a-1]

A.
3
1
1
3

----------
- System: barnyardgrjass
- test name: Foliar spread test for upland field
- Format: in vivo, Eschinochloa crusgalli
- Design: key: 0 = normal development, 5 = all killed (6 ranks vs. untreated)
- condition parameters: foliar spray, 500 ppm, 3 weeks, glass house 25° C.
observable: Effects Barnyardgrass
Answers are plain numbers.

Some solved cases for reference:
CCC(=Cc1cccc(C(F)(F)F)c1)c1nc2cc(C(F)(F)F)ccc2o1
2
CCC(=Cc1cccc(C(F)(F)F)c1)c1nc2cc(C#N)ccc2o1
3
CCC(F)(Cc1ccc(F)c(C(F)(F)F)c1)c1nc2cc(Cl)ccc2o1 (stereo not shown)
1
CCCC(=Cc1cccc(C(F)(F)F)c1)c1nc2cc(F)c(F)cc2o1
3
CC(=Cc1cccc(C(F)(F)F)c1)c1nc2cc(C#N)c(F)cc2o1
3
CC/C(=C\c1cccc(C(F)(F)F)c1)c1nc2cc(Cl)ccc2o1
4
N#Cc1ccc2oc(-c3cccc(Oc4cccc(C(F)(F)F)c4)n3)nc2c1
1
CCC(=Cc1cccc(C(F)(F)F)c1)c1nc2cc(Cl)c(C)cc2o1
3

// for each compound below, give its Effects Barnyardgrass
1. CCCC(=Cc1cccc(C(F)(F)F)c1)c1nc2cc(C#N)c(Cl)cc2o1
2. FC(F)(F)c1cccc(Oc2cccc(-c3nc4cc(C(F)(F)F)ccc4o3)n2)c1

A.
[2, 2]

----------
Kindly supply the reported Effects Solgum values for the records listed here.
- Test system: solgum
- test name: Soil treatment test for upland field
- Format: in vivo
- Set-up: key: 0 = normal development, 5 = all killed
- condition parameters: 500 g/ha, 3 weeks, glass house 25° C.
Answers are plain numbers.

Some solved cases for reference:
CCC(=Cc1cccc(C(F)(F)F)c1)c1nc2cc(F)c(F)cc2o1 [I-c-111]
3
CCC(=Cc1cccc(C(F)(F)F)c1)c1nc2cc(Cl)c(C)cc2o1 [I-c-131]
3
CC(=Cc1cccc(C(F)(F)F)c1)c1nc2cc(F)ccc2o1 [I-c-40]
2
CCCC(=Cc1cccc(C(F)(F)F)c1)c1nc2cc(Cl)ccc2o1 [I-c-57]
2

Next item in the queue.
Q. Which value of Effects Solgum has been reported for CC(=Cc1cccc(C(F)(F)F)c1)c1nc2cc(C#N)c(F)cc2o1 [I-c-135] in the records?
A. 1

This collection of values is drawn from patent US7402548B2.
